Test: Calcein AM cytotoxicity assay, BJ cells
Settings: human
MEASURED QUANTITY: IC50 at 72 h

Dear colleague, could you please provide IC50 at 72 h for the compounds listed below?
1. Cc1ccc(CNc2nc(F)nc3c2ncn3C2CCCCO2)o1 (stereo not shown)
2. COc1ccc(CNc2nc(F)nc3c2ncn3C2CCCCO2)cc1 (stereo not shown)
3. COc1cccc(CNc2nc(F)nc3c2ncn3C2CCCCO2)c1 (stereo not shown)
4. c1coc(CNc2ncnc3[nH]cnc23)c1 [Kinetin, reference compound]
5. Oc1ccc(CNc2nc(F)nc3c2ncn3C2CCCCO2)cc1 (stereo not shown)
6. Nc1ncnc2nc[nH]c12 [Adenine, reference compound]

Result string:
["> 167 µM", "> 167 µM", "> 167 µM", "148 µM", "> 167 µM", "> 167 µM"]

Below are some compounds; for each one, tell me its IC50 at 72 h.
1. COc1cc(CNc2nc(F)nc3c2ncn3C2CCCO2)ccc1O (stereo not shown)
2. Oc1cccc(CNc2nc(F)nc3c2ncn3C2CCCO2)c1 (stereo not shown)
3. Fc1nc(NCc2ccccc2)c2ncn(C3CCCCO3)c2n1 (stereo not shown)

Result string:
["> 167 µM", "> 167 µM", "124 µM"]

Query string: Fill blank: measured IC50 at 72 h of the compound Oc1ccc(CNc2nc(F)nc3c2ncn3C2CCCO2)cc1 (stereo not shown) is ____.
Result string: > 167 µM
